Provenance of the data: patent US11058678B2

Test Details: Compound induced cellular toxicity in HepG2 cells (ATPlite 1 Step)
Format: cell-based
Condition Description: human, three days, 50% reduction of total ATP levels vs no drug controls
Quantity Kind: CC50 at 3 days

>>> val("COCCCOc1cc2c(cc1-c1ccccc1F)-c1cc(=O)c(C(=O)O)cn1[C@H](C(C)(C)C)C2 [Example 13]")
"10 to 25 µM"
>>> val("COCCCOc1cc2c(cc1-c1cccs1)-c1cc(=O)c(C(=O)O)cn1[C@H](C(C)(C)C)C2 [Example 8]")
"10 to 25 µM"
>>> val("COCCCOc1cc2c(cc1-c1ccc(C)o1)-c1cc(=O)c(C(=O)O)cn1[C@H](C(C)(C)C)C2 [Example 1]")
"> 25 µM"
>>> val("C[C@H]1Cc2c3c(cc(-c4ccoc4)c2O1)-c1cc(=O)c(C(=O)O)cn1[C@H](C(C)(C)C)C3 [Example 132]")
"< 10 µM"

Respectfully, I request CC50 at 3 days for each entry included below.
1. CC(C)(C)[C@@H]1Cc2c(cc(-c3ccc(F)cc3)c3c2CCO3)-c2cc(=O)c(C(=O)O)cn21 [Example 62]
2. CC(C)(C)[C@@H]1Cc2c(cc(N3CC(F)(F)C3)c3c2CCO3)-c2cc(=O)c(C(=O)O)cn21 [Example 30]
3. COCCCOc1cc2c(cc1-c1ccoc1)-c1cc(=O)c(C(=O)O)cn1[C@H](C(C)(C)C)C2 [Example 2]

1. < 10 µM
2. > 25 µM
3. > 25 µM
